Data provenance is patent US20230016112A1.

Item-by-item account of pKd
Target: T1, full-length CD25 (human, UniProt P01589 22-186, limits assumed)
T1 construct: The assays used soluble 'full-length CD25'; also called Hu CD25; IL-2 receptor alpha chain
T1 chain: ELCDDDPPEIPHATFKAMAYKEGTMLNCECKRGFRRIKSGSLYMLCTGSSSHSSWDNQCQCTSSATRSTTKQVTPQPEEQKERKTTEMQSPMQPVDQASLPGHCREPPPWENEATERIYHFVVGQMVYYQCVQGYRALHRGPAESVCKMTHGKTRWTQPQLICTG
Test: Octet biolayer interferometry, human IgG1 against CD25
Lab note: report pKd as minus log10 of the concentration in molar units, number only.

Here are 4 binders together with their reported answers.
binder: YU390-B12 (antibody, Tested as full-length human IgG1) scFv: PGRSLRLSCAASGFTFSSYGMHWVRQAPGKGLEWVAVISYDGSNKYYADSVKGRFTISRDNSKNTLYLQMNSLRAEDTAVYYCAKELLEGAFDIWGQGTMVTVSSSYVLTQPPSLSVAPGQTARITCGGDNIETKSVHWYQQRPGQAPVLVVYDDDDRPSGIPERFSGSNSGNTATLTISRVEAGDEADYYCQVWDSSSGHREVFGGGTKLTVL
experimentalReadout: pKd
assayResult: 7.86
//
binder: YU392-H02 (antibody, Tested as full-length human IgG1) scFv: QLQLQESGPGLVNLSQTLSLTCTVSGGSISSGGYYWSWIRQHPGKGLEWIGYIYYSGSTYYNPSLKSRVTISVDTSKNQFSLKLSSVTAADTAVYYCARDSSSGPYGMDVWGQGTTVTVSSQSVLTQPPSVSVAPGQTARVTCGGSNIGSQSVHWYQQKPGQAPVLVVYDDYDRPSGIPERFSGSNSGNTATLTITRVDAGDEADYYCQIWDSSSAHVVFGGGTKLTVL
experimentalReadout: pKd
assayResult: 7.98
//
binder: YU392-E06 (antibody, Tested as full-length human IgG1) scFv: QLQLQESGPGLVKPSGTLSLTCAVSGGSISSSNWWSWVRQPPGKGLEWIGEIYHSGSTNYNPSLKSRVTISVDKSKNQFSLKLSSVTAADTAVYYCARERTHYYYGMDIWGQGTTVTVSSQSVLTQPPSTSGTPGQRVTISCSGSSSNIGSNTVNWYHQLPGTAPRLLIYSNNQRPSGVPDRFSGSKSGTSASLALSGLQSEDEGDYYCAAWDDSLNGYVFGTGTKVTVL
experimentalReadout: pKd
assayResult: 8.08
//
binder: YU400-B07 (antibody, Tested as full-length human IgG1) scFv: PGRSLRLSCAASGFTFSSYGMHWVRQAPGKGLEWVAVISYDGSNKYYADSVKGRFTISRDNSKNTLYLQMNSLRAEDTAVYYCAKGDVNYGMDVWGQGTTVTVSSSYVLTQPPSVSVAPGKTARITCGGNNIGSKSVHWYQQKPGQAPVLVVYDDTDRPSGIPERFSGSNSGNTATLTISRVEAGDEADYYCQVWDSSSDLLWVFGGGTKLAVL
experimentalReadout: pKd
assayResult: 7.24

Task: Identify pKd associated with the binder YU392-A09 (antibody, Tested as full-length human IgG1) scFv: PGATVKISCKVSGYTFTDYYMHWVQQAPGKGLEWMGLVDPEDGETIYAEKFQGRVTITADTSTDTAYMELSSLRSEDTAVYYCATEGRYGMDVWGQGTTVTVSSQAVLTQPPSVSGTPGQRVTISCSGNNFNIGNNLVYWYQQLPGTAPKLLIYANDERPSGVPDRFSGSKSGTSASLAISGLRSEDDADYYCATWDDSLSGVVFGGGTKLTAL
Result: 7.91
